biological target: ROCK2 (Homo sapiens (Human)); assay: Z'Lyte assay, ROCK2 inhibition at a single concentration; assay type: biochemical; settings: read-out: % inhibition (ROCK2) 1 uM
Sequence (O75116 whole entry): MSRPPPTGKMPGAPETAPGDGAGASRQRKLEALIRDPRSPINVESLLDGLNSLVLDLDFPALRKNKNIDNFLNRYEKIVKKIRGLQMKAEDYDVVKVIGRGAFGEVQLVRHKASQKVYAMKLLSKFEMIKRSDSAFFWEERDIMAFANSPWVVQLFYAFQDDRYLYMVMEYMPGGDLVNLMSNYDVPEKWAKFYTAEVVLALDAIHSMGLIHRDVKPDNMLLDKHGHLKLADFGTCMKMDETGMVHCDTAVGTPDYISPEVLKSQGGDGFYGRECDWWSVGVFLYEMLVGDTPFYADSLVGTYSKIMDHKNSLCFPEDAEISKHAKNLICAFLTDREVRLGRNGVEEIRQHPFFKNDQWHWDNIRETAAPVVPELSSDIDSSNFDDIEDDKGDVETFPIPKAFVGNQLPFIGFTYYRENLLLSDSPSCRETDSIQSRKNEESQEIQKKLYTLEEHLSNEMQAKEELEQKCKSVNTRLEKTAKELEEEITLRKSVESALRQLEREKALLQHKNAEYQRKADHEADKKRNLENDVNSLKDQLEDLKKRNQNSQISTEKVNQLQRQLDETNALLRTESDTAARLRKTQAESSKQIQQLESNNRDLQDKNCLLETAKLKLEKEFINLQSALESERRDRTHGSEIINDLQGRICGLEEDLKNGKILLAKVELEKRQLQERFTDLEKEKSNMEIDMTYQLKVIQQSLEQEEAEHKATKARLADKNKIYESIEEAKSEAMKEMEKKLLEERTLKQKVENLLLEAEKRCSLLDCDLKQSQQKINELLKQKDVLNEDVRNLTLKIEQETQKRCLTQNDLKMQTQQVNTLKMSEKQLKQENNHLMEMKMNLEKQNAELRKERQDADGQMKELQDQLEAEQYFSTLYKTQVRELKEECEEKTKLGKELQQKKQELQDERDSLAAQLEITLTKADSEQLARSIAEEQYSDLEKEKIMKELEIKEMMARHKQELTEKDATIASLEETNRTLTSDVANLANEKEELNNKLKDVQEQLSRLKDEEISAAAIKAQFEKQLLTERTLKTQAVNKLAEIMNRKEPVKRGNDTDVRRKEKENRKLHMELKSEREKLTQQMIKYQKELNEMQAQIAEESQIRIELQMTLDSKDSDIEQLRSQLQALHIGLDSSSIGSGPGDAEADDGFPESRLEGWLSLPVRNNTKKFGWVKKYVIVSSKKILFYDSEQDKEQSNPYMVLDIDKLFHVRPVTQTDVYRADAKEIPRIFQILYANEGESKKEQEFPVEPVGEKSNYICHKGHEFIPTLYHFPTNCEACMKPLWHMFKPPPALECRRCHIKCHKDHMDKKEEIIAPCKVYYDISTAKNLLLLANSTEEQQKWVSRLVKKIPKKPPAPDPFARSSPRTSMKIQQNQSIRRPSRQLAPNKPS
quantity_name: inhibition at 1 µM (%)

> print(dat)
                               given.smiles       quantity.name  readout.value
1  O=C(Nc1cccc(Cl)c1)N1CC=C(c2ncnc3[nH]c4c(c23)CCC4)CC1  inhibition at 1 µM             14
2  Cc1c[nH]c2ncnc(C3=CCN(C(=O)Nc4cccc(Oc5cccc(OC(=O)N(C)C)c5)c4)CC3)c12  inhibition at 1 µM             56
3  CN1CCc2[nH]c3ncnc(C4=CCN(C(=O)Nc5cccc(Cl)c5)CC4)c3c2C1  inhibition at 1 µM             -9
4  O=C(Nc1cccc(Cl)c1)N1CC=C(c2ncnc3[nH]c4c(c23)CCCCC4)CC1  inhibition at 1 µM              7
5  CN1CCc2[nH]c3ncnc(C4=CCN(C(=O)Nc5cccc(Br)c5)CC4)c3c2C1  inhibition at 1 µM             -8
6  O=C(Nc1ccccc1)N1CC=C(c2ncnc3[nH]c4c(c23)CCC4)CC1  inhibition at 1 µM             11
7  O=C(Nc1cccc(Br)c1)N1CC=C(c2ncnc3[nH]c4c(c23)CCCC4)CC1  inhibition at 1 µM             11
8  O=C(Nc1cccc(Br)c1)N1CC=C(c2ncnc3[nH]c4c(c23)CCCCC4)CC1  inhibition at 1 µM             -4
9  O=C(Nc1cccc(Br)c1)N1CC=C(c2ncnc3[nH]c4c(c23)CCC4)CC1  inhibition at 1 µM             13

// provenance: patent US20230312576A1
